Reference source: ChEMBL document CHEMBL1127799

- Test system: Candida albicans
- assay: Tested for minimum inhibitory concentration against Candida albicans 124 (Candida albicans) at pH of 4.5.
- Assay type: functional
measured attribute: MIC (µg/mL)
Express the result in µg/mL but write the number alone.

Need MIC, item CC[C@@H](C)[C@H]1C(=O)NCC(=O)N(C)[C@@H](C(C)C)C(=O)N[C@@H](Cc2ccc(OCc3ccc(Cl)cc3)cc2)C(=O)O[C@H](C)C(=O)N2CCCC[C@H]2C(=O)N(C)[C@@H](C(C)C)C(=O)N[C@@H](C(C)C)C(=O)N(C)[C@@H](CC(=O)O)C(=O)N(C)[C@@H]([C@@H](C)CC)C(=O)N1C
100

---
Bench note: what MIC did C=CCOc1ccc(C[C@@H]2NC(=O)[C@H](C(C)C)N(C)C(=O)CNC(=O)[C@H]([C@H](C)CC)N(C)C(=O)[C@H]([C@@H](C)CC)N(C)C(=O)[C@H](CC(=O)O)N(C)C(=O)[C@H](C(C)C)NC(=O)[C@H](C(C)C)N(C)C(=O)[C@@H]3CCCCN3C(=O)[C@@H](C)OC2=O)cc1 show?
3.13
